Ref: patent US10899793B2

biological target: mMC3R (Mus musculus, UniProt P33033); conditions: Table 1; Schild analysis, pA2 = -Log(Ki); Full Agonist = full dose-response, No Activity = no shift in EC50
Sequence (P33033 whole entry): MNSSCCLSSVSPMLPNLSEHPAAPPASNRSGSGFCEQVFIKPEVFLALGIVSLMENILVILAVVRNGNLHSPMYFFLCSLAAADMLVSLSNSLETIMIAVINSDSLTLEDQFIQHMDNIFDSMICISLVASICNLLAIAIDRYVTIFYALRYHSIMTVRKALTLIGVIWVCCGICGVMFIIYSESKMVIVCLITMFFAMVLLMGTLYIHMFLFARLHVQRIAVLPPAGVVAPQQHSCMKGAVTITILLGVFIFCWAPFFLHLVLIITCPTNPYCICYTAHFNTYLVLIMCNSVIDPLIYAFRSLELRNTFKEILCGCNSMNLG
Square brackets hold non-standard residues; d marks the D form. Peptide text beside a SMILES is read from it. Bip = N[C@@H](Cc1ccc(-c2ccccc2)cc1)C(=O)O; dPhe(4-I) = N[C@H](Cc1ccc(I)cc1)C(=O)O; d2Nal = N[C@H](Cc1ccc2ccccc2c1)C(=O)O; Bta = N[C@@H](Cc1csc2ccccc12)C(=O)O; Tic = O=C(O)[C@@H]1Cc2ccccc2CN1
PARAMETER_MEASURED: mMC3R Antagonist pA2 ± SEM

CC(=O)N[C@@H](Cc1ccccc1)C(=O)N[C@@H](CCCNC(=N)N)C(=O)N[C@H](Cc1ccc(I)cc1)C(=O)N[C@@H](Cc1ccccc1)C(N)=O [SKY4-48-31, Ac-Phe-Arg-(pI)DPhe-Phe-NH2] (Ac-FR[dPhe(4-I)]F-NH2)
No Activity
CC(=O)N[C@@H](Cc1ccc(-c2ccccc2)cc1)C(=O)N[C@@H](CCCNC(=N)N)C(=O)N[C@H](Cc1ccc(I)cc1)C(=O)N[C@@H](Cc1csc2ccccc12)C(N)=O [SKY4-48-12, Ac-Bip-Arg-(pI)DPhe-3Bal-NH2] (Ac-[Bip]R[dPhe(4-I)][Bta]-NH2)
Full Agonist
CC(=O)N1Cc2ccccc2C[C@H]1C(=O)N[C@@H](CCCNC(=N)N)C(=O)N[C@H](Cc1ccc(I)cc1)C(=O)N[C@H](Cc1ccc2ccccc2c1)C(N)=O [SKY4-48-46, Ac-Tic-Arg-(pI)DPhe-DNal(2′)-NH2] (Ac-[Tic]R[dPhe(4-I)][d2Nal]-NH2)
No Activity
CC(=O)N1Cc2ccccc2C[C@H]1C(=O)N[C@@H](CCCNC(=N)N)C(=O)N[C@H](Cc1ccc(I)cc1)C(=O)N[C@@H](Cc1ccc(-c2ccccc2)cc1)C(N)=O [SKY5-146-1, Ac-Tic-Arg-(pI)DPhe-Bip-NH2] (Ac-[Tic]R[dPhe(4-I)][Bip]-NH2)
No Activity
CC(=O)N[C@@H](Cc1ccc(-c2ccccc2)cc1)C(=O)N[C@@H](CCCNC(=N)N)C(=O)N[C@H](Cc1ccc(I)cc1)C(=O)N1Cc2ccccc2C[C@H]1C(N)=O [SKY4-48-20, Ac-Bip-Arg-(pI)DPhe-Tic-NH2] (Ac-[Bip]R[dPhe(4-I)][Tic]-NH2)
Full Agonist
CC(=O)N[C@@H](Cc1ccc(-c2ccccc2)cc1)C(=O)N[C@@H](CCCNC(=N)N)C(=O)N[C@H](Cc1ccc(I)cc1)C(=O)N[C@@H](Cc1ccccc1)C(N)=O [SKY4-48-28, Ac-Bip-Arg-(pI)DPhe-Phe-NH2] (Ac-[Bip]R[dPhe(4-I)]F-NH2)
No Activity

Query molecule follows.
### Prompt State its mMC3R Antagonist pA2 ± SEM for this molecule: CC(=O)N[C@@H](Cc1c[nH]cn1)C(=O)N[C@@H](CCCNC(=N)N)C(=O)N[C@H](Cc1ccc(I)cc1)C(=O)N[C@@H](Cc1ccc(-c2ccccc2)cc1)C(N)=O [SKY4-48-3, Ac-His-Arg-(pI)DPhe-Bip-NH2] (Ac-HR[dPhe(4-I)][Bip]-NH2)
### Response No Activity
